Reported RP-LC retention time by item:
Assay: gradient 5% acetonitrile 3 min, to 50% in 2 min, to 85% in 15 min, held 3 min, 100 µL/min
Conditions: column: Zorbax Extend-C18 2.1 x 50 mm; eluents: water / acetonitrile, 0.1% formic acid

compound	measurementUnit	RP-LC retention time
O=C(NC1CCCCC1)C1c2cccn2CC(=O)N1Cc1ccc(F)cc1 (stereo not drawn)	s	918
COc1cccc(-c2nc(Cn3c(C)nc4ccccc4c3=O)no2)c1OC	s	816
CCCN1C(=O)COc2cc(-c3noc(C(=O)N4CCCC4)n3)ccc21	s	885
O=C(NCc1ccccc1Br)c1cn2c(n1)CCCC2	s	610
COc1ccc(NC(=O)NCC(c2cccnc2)c2c[nH]c3ccccc23)c(OC)c1 (stereo not drawn)	s	650
O=c1ccc(N2CCCN(S(=O)(=O)c3ccc(F)c(F)c3)CC2)nn1-c1ccccc1	s	861
COC(=O)c1cccc(Nc2c(-c3ccc(N4CCOCC4)cc3)nc3cnccn23)c1	s	754
CCCCc1nc(N2CCN(C(=O)c3ccco3)CC2)c(C#N)c2c1COC(C)(C)C2	s	1190
CC(C)(Oc1ccc(Cl)cc1)C(=O)NCCS(=O)(=O)N1CCc2ccccc2C1	s	1000
O=S(=O)(NCC1(O)CCOCC1)c1ccc2c(c1)CCCC2	s	688
Cc1nc(-c2ccncc2)cc2nn(CC(=O)NCc3ccccc3)c(=O)n12	s	697
Cc1ccc(Nc2c(-c3ccc(C)cc3)nc3ccc(Cl)cn23)cc1	s	890
CCOC(=O)C1=C(CN(CC)Cc2ccccc2)NC(=O)NC1c1ccc(F)cc1 (stereo not drawn)	s	696
CC(=O)n1nc(-c2ccc(C)c(C)c2)nc1N	s	813
Cc1ccc(-c2cn3cc(C(=O)N4CCCN(C)CC4)ccc3n2)cc1C	s	583
CCC(C)NC(=O)c1nc2cc(C)c(C)cc2n(C)c1=O (stereo not drawn)	s	798
O=C(NC1CCCC1)C1CCCN(c2nccn3nc(-c4ccccc4Cl)cc23)C1 (stereo not drawn)	s	915
Cc1nc([C@@H]2CN(C(=O)c3ccc(Cl)s3)C[C@H]2C(N)=O)n[nH]1	s	608
O=C(C1CCCN(c2ncnc3c2nc2n3CCCCC2)C1)N1CCN(c2ccccc2)CC1 (stereo not drawn)	s	803
CCc1noc2nc(C)n(CC(=O)NCc3ccc(F)cc3)c(=O)c12	s	797
Cc1ccc(-c2noc(Cn3cnc4c(cnn4-c4ccc(C(C)C)cc4)c3=O)n2)cc1C	s	1330
Cc1ccc(C)c(NC(=O)Cn2cccc(-c3nc(-c4ccc(Br)cc4)no3)c2=O)c1	s	1030
O=C(Nc1ccc(C(F)(F)F)cc1)Nc1cccc(-c2nccnc2N2CCOCC2)c1	s	956
Cc1noc(-c2ccc(NC(=O)COc3ccc(Cl)cc3Cl)cc2)n1	s	1030
O=C(NC1CC1)[C@@H]1C[C@H](Oc2ccccc2)CN1C(=O)C1CC=CC1	s	755
Cc1cccc(Sc2nccnc2N2CCCC(C(=O)N3CCN(c4ccccc4F)CC3)C2)c1 (stereo not drawn)	s	1280
CCc1noc(C2(NC(=O)COc3ccc(Cl)cc3)CCCCC2)n1	s	1040
COc1cccc(CCC(=O)Nc2ccc3ncnc(N4CCCC4)c3c2)c1	s	683
N#Cc1cccc(N2C=C(C(=O)N3CCCC3)S(=O)(=O)c3ccc(F)cc32)c1	s	752
Cc1ccc(CC(=O)Nc2cnn(C)c(=O)c2N2CCOCC2)cc1	s	764
O=C(O)CCC1CCCN(S(=O)(=O)c2ccc(F)cc2)C1 (stereo not drawn)	s	782
COc1ccc(CCNC(=O)CN2C(=O)NC3(CCC(C)CC3)C2=O)cc1OC (stereo not drawn)	s	740
COC(=O)c1cnn2c(C)c(Cc3ccc(F)cc3)c(C)nc12	s	845
COc1ccc(OC)c(NC(=O)Cn2cccc(-c3nc(-c4ccc(F)cc4)no3)c2=O)c1	s	897
CCCNS(=O)(=O)c1cc(-c2c(CC)noc2NC(C)=O)ccc1OC	s	774
COc1ccc(-c2cn3c(CC(=O)N(Cc4ccco4)C4CCCC4)csc3n2)cc1OC	s	841
COc1ccc(OC)c(NC(=O)C(C)C2CCN(C(=O)Nc3ccc(C)cc3)CC2)c1 (stereo not drawn)	s	908
CCCC1NN(C)C2C(=O)NC(c3cc(S(=O)(=O)N4CCN(C)CC4)ccc3OCC)NC12 (stereo not drawn)	s	722
